Test system: NCI/ADR-RES
EXPERIMENT NOTES: NCI tumour cell line growth inhibition, 48 h
Calls of active or inactive are those of the source. Rule as the data show it: active = GI50 up to about 1.1 µM and inactive = higher.
MEASUREMENT KIND: GI50

CCOC(=O)c1c(CN2CCNCC2)nc2ccccc2c1-c1ccccc1
16.2 µM (inactive)

// next entry
Measured GI50, CC1=NN(C(=O)c2ccc(C)cc2)C(=O)C1/N=N/c1ccccc1C(=O)O (stereo unspecified) : > 100 µM (inactive)

* * *

System: ACHN
EXPERIMENT NOTES: NCI tumour cell line growth inhibition, 48 h
The source made the active and inactive calls. No stated cut-off is given here; in the data, active = GI50 up to about 1.1 µM and inactive = higher.
// classify into true (1) for active, false (0) for inactive

Query: Call for entry `O=C(/C=C\c1cccc2ccccc12)c1ccc(Br)cc1` :
Reply: false (0)

Query: Hey, what did the test say about CCOC(=O)[C@H]1Nc2ccc([N+](=O)[O-])cc2C2c3ccccc3CC21 (stereo not given in full) ?
Reply: false (0)

Query: State the result this test recorded for `CCOC(=O)/C(C#N)=C\c1ccc(N(CCC(=O)O)CCC(=O)O)c(I)c1` .
Reply: false (0)

Query: Could you kindly confirm the outcome this assay logged for `CCOc1ccc(/C=C2\N=C(c3ccc([N+](=O)[O-])cc3)OC2=O)cc1` ?
Reply: false (0)

Query: Outcome logged for `O=c1cc(NNCc2ccccc2)[nH]c(=O)[nH]1` in this assay:
Reply: false (0)

Query: Test call for this molecule, please: `COc1ccc(OC)c(/C=C/C(=O)C(C)(C)C)c1`
Reply: false (0)

Query: GET /call?item= `COc1cc2c(c(OC)c1OC)-c1ccc(SC)c(=O)cc1[C@@H](NCc1cccc(C#N)c1)CC2` returns the recorded outcome of this test.
Reply: true (1)

Query: Which outcome did this test record for the molecule `CCOC(=O)COC1=Nc2cc(OC)c(OC)c3nc(Cl)cc(c23)C1=O` ?
Reply: false (0)

Query: Assay outcome for C=C1C2C[C@@H]3OC4CC5O[C@]6(CC5OC4C(C)C3OC(=O)CC3CC[C@@H]4OC5C7OC8C[C@](CCC9CC(=C)[C@H](CCC(C[C@H]1C)O2)O9)(OC7C4O3)O[C@@H]85)C[C@@H]1O[C@@]2(CC(C)[C@@H]3OC(CC(=O)CCO)C(O)C[C@@H]3O2)CC(C)[C@@H]1O6 (stereo not given in full) : what was it?
Reply: true (1)

Query: For CCCCCCCCCCCCC(CC)CCCCC(=O)O (stereo not given) , which call appears in the assay record?
Reply: false (0)

Query: What did this assay record as the result for COc1ccc(CC[N+]2(C)COc3cc4oc(=O)cc(C)c4cc3C2)cc1OC (stereo not given) ?
Reply: false (0)

Query: What call does the record list for `CCC1=NC(N/N=C/c2ccco2)=N/C1=C\c1ccccc1O` ?
Reply: false (0)

Query: Give the logged outcome of this assay for the following molecule: `Nc1ccc2c(SCC(=O)Nc3ccccc3-c3ccccc3NC(=O)CSc3c4ccccc4nc4cc(N)ccc34)c3ccccc3nc2c1`
Reply: false (0)

Query: Which outcome was entered for the molecule COc1ccc(C2Oc3c(cccc3OC)C=C2[N+](=O)[O-])cc1 (stereo not given) in this test?
Reply: false (0)

Query: Per the records of this test, what outcome belongs to S=C1CC(c2ccccc2)Sc2ccc(Cl)cc2N1 (stereo not given) ?
Reply: false (0)
